System: OVCAR-5
assay-text: NCI tumour cell line growth inhibition, 48 h
Activity calls are given as the source filed them. Rule as the data show it: active = GI50 up to about 1.1 µM and inactive = higher.
Outcome codes: active, inactive

compound	cat
C=C1C(=O)OC2CC1CCC1(C)OC1CCC(C)=CCCC2(C)O (centres undefined)	inactive
COC1C(N)C(OC2C(Oc3cccc4c(O)c5c(=O)oc6ccc(C)c7c(=O)oc(c34)c5c67)OC(C)C(O)C2(C)O)OC(C)C1O (centres undefined)	active
Cc1ccc2c(c1)NC(=O)C(N=[N+]=[N-])(c1ccccc1)C2=O (centres undefined)	inactive
O=C1C=C2C(=NC34CCCCC3C(c3ccccc3)C3=C(c5ccccc5CC3)N24)c2ccccc21 (centres undefined)	inactive
CCn1c(-c2ccccc2)nc2c1C(=O)c1ccccc1C2=O	inactive
CNC(=S)N1CCN(C(C)=O)C1=S	inactive
COc1cccc(/C(Cl)=C(\C=O)c2cccc(OC)c2)c1	inactive
COC(=O)C(C(=O)C(=O)Nc1ccc(Br)cc1)c1nc2ccc(Cl)cc2nc1O (centres undefined)	inactive
CC1=C(C#N)C(=C(C#N)C#N)OC1(C)Cc1ccccc1 (centres undefined)	inactive
COc1ccc(N(C)CN(C)c2nc(N(C)C)nc(N(C)C)n2)cc1	inactive
CC1=C2CCCC2C/C(=N/Nc2ccc([N+](=O)[O-])cc2[N+](=O)[O-])CC1 (centres undefined)	inactive
CCOC(=O)Cc1nc2nn(Cc3ccccc3)cc2c(=O)[nH]1	inactive
COC1CC(OC(=O)c2ccccc2)C(OC(=O)c2ccccc2)C(C)O1 (centres undefined)	inactive
C=C1CC2(CCS(=O)(=O)c3ccccc32)OC1=O (centres undefined)	inactive
Clc1ccc(C2NN=C3c4ccccc4OCC32)cc1 (centres undefined)	inactive
CCOC(=O)c1cc(Br)c(-c2cc(C)no2)[nH]1	inactive
CC(=O)OCc1c(C)c2ccccc2n1C(C)=O	inactive
Clc1ccc(-c2ccc(-c3nn4c(CNc5ccccc5)nnc4s3)o2)c(Cl)c1	inactive
CO/C=C(\Br)c1ccc2c(c1)OCO2	inactive
O=C(c1c(F)c(F)c(F)c(F)c1F)c1c(F)c(F)c(F)c(F)c1F	inactive
COc1nc(C(=O)O)c(Cl)c(OC)c1Cl	inactive
CC1SC2=NC3=C(c4ccccc4C3=O)C(c3ccc(Cl)cc3)N2C1=O (centres undefined)	inactive
Cc1cc2c(=O)cc(-c3ccc(C(=O)O)cc3)oc2c(C(=O)O)c1C	inactive
COc1cc(Br)c(CC2C3=C(CCN2C(=O)C2CCC2)CC2(CC3)OCCO2)cc1O (centres undefined)	inactive
Brc1cccc(/N=N/N2CCCC2)c1	inactive
COC(=O)[C@@H](Cc1ccccc1)N1O[C@]12CCCC[C@@H]2NC(=O)OC(C)(C)C (some centres undefined)	inactive
CCOc1ccc(NC(=O)CC2C(=O)Nc3ccccc3S2(=O)=O)cc1 (centres undefined)	inactive
C=CCCCCn1c2ccccc2c2c(C)c3c[n+](C)ccc3c(C)c21	active
CC(C)c1cccc(C(C)C)c1NC(=O)/C(Cc1nc2ccc(Cl)cc2nc1O)=N\NC(=O)C[N+](C)(C)C	inactive
CC[C@H](O)[C@H](C)C=C1SCCCS1	inactive
O=C(CCN1CCCC1)Nc1ccc2sc3ccccc3c(=O)c2n1	inactive
Cc1cc(C)nc(/C(=N\NC(N)=O)C(=O)Nc2nc3ccc(C)cc3s2)c1	inactive
O=C(O)/C(Cl)=C(\Cl)C(=O)Nc1ccc(Cl)c(Cl)c1Cl	inactive
CC(=O)c1c2c(cc3c1CC1(Cc4cc5c(cc4C1)C(=O)CCC5)C3)CCCC2 (centres undefined)	inactive
COc1cc(/C=C/c2ccc(/C=C/c3cc(OC)c(OC)c(OC)c3)cc2)cc(OC)c1OC	inactive
COc1c(O)c2ccccc2c2cc(O)ccc12	inactive
Cc1cc(=O)n2c3c(c4c(cc13)c(CN(C)C)cc(=O)n4C)OC2	inactive
COc1ccc(/C=C2\N/C(=N\N=C/C(O)C(O)C(O)C(O)CO)NC2=O)cc1 (centres undefined)	inactive
COc1cc2c(c(OC)c1OC)C(=O)c1c(O)cc(C)c(OC)c1C2=O	inactive
CC(C)=CCC/C(C)=C/CO [GERANIOL]	inactive
O=C1c2ccccc2N(O)C1(c1ccccc1)C1CCCC=C1N1CCOCC1 (centres undefined)	inactive
CO[C@]1(c2ccc([N+](=O)[O-])cc2)Oc2ccccc2C(=O)[C@@]1(Nc1ccc(C=O)cc1)OC	inactive
N#Cc1cc2c(cc1C#N)SCCSCCCSCCS2	inactive
COc1cc2c(ccc3c4cc(OC)c(OC)cc4c[n+](C)c23)cc1O [FAGARONINE]	inactive

---

Test system: SNB-75
assay-text: NCI tumour cell line growth inhibition, 48 h
Calls of active or inactive are those of the source. No stated cut-off is given here; in the data, active = GI50 up to about 1.1 µM and inactive = higher.
Outcome codes: Yes (active), No (inactive)

compound	study-target	cat
COC(=O)[C@@]12C3=NO[C@]1(C(=O)OC)C(O[Si](C)(C)C(C)(C)C)[C@@H](OC(C)=O)[C@@H](OC(C)=O)[C@@H]2[C@@H](OCc1ccccc1)CC3 (stereo partly specified)	SNB-75	No
Clc1ccc(Nc2nc(Cl)c3nc[nH]c3n2)cc1Cl	SNB-75	No
CCN(CC)CCNc1ccc2nnn3c4ccc(O)cc4c(=O)c1c23	SNB-75	No
Cc1ccc2c(c1)C/C(=C\c1ccccc1C(=O)O)C2=O	SNB-75	No
OCCCCCCOc1ccc(-c2cc(-c3ccccn3)nc(-c3ccccn3)c2)cc1	SNB-75	Yes
CC12CCC(=O)N1c1cc([N+](=O)[O-])ccc1N2 (stereo unspecified)	SNB-75	No
CCOP(=O)(OCC)C(N)Cc1ccc(OC)c(OC)c1 (stereo unspecified)	SNB-75	No
C=CCn1c(=O)c2ccccc2[n+]2c(-c3cccc([N+](=O)[O-])c3)csc12	SNB-75	No
CSC(=S)Nc1cc(C)cc(C)n1	SNB-75	No
CCOC(=O)c1ccc2nc(NC(=O)COC(=O)CSc3nc(C)cc(C)n3)sc2c1	SNB-75	No
O=C1/C(=C/c2ccccc2)Oc2cc(O)ccc21	SNB-75	No
COc1ccc(C2=NNC(=O)c3ccccc3N2c2nc(-c3cccs3)nc3ccc(Br)cc23)cc1	SNB-75	No
Clc1ncnc2c1nc(C#Cc1ccccc1)n2C1CCCCO1 (stereo unspecified)	SNB-75	No
CCN(CC)c1cccc2c1/C(=N/O)CCCC2	SNB-75	No
Cc1cc2c(=O)cc(-c3ccc(C(=O)O)cc3)oc2c(C(=O)O)c1C	SNB-75	No
c1ccc([P+](CCN2Cc3ccccc3C2)(c2ccccc2)c2ccccc2)cc1	SNB-75	No
CC1NC(=O)C(C)C(c2ccccc2)N(N=O)C1c1ccccc1 (stereo unspecified)	SNB-75	No
C[C@]12OC(=O)[C@]3(O)CC[C@H]4[C@@H](C[C@@H](O)[C@@]5(Cl)CC=CC(=O)[C@]45C)[C@]45OCC6C(=O)O[C@@H]1C[C@@]6(C)[C@H](C4=O)[C@@]32O5 (stereo partly specified)	SNB-75	No
O=c1[nH]c2cc(C(F)(F)F)ccc2nc1CBr	SNB-75	No
CC(=O)OCCOCNC(=S)N/N=C(\C)c1cnccn1	SNB-75	No
COC(=O)c1ccccc1C1CN=NC12Cc1c(ccc(C)c1C)C2=O (stereo unspecified)	SNB-75	No

---

Tested on: TK-10
assay-text: NCI tumour cell line growth inhibition, 48 h
The source made the active and inactive calls. No stated cut-off is given here; in the data, active = GI50 up to about 1.1 µM and inactive = higher. Where a SMILES comes first, the peptide text is derived from it. The star is where a group is joined. CH2Cl = ClC*
Outcome codes: 1 for active, -1 for inactive

compound	study-target	cat
O=C(NCCc1n[nH]c2c1C(=O)C=C(Nc1ccccc1)C2=O)OCc1ccccc1	TK-10	-1
COc1ccc(Br)c(N/N=C2\CCCNC2=O)c1	TK-10	-1
Clc1cccc(Cl)c1C1SCc2nc3cc4ccccc4cc3n21 (stereo unspecified)	TK-10	-1
COC(=O)/N=C(\NC(=O)OC)Nc1ccc(Oc2ccccc2)cc1NC=O	TK-10	-1
CCOC(=O)c1cc(Br)c(-c2cc(C)no2)[nH]1	TK-10	-1
N#CCN(Cc1ccccc1)[C@H]1CCC[C@]1(O)/C=C/c1ccc2c(c1)OCO2	TK-10	-1
O=C(c1ccccc1)c1ccc(N2C(=O)/C(=C/c3cccc(Oc4ccccc4)c3)N=C2c2ccccc2)c(N2C(=O)/C(=C/c3cccc(Oc4ccccc4)c3)N=C2c2ccccc2)c1	TK-10	-1
Cc1c(S(=O)(=O)O)ccc(/N=N/c2c(O)c(C(=O)O)cc3ccccc23)c1Cl	TK-10	-1
O=C1/C(=C/c2ccccc2)Oc2cc(O)ccc21	TK-10	-1
CN(C(=O)Nc1ccc(Cl)c(Cl)c1)C1CCCC[C@@H]1N1CCCC1 (stereo partly specified)	TK-10	-1
COc1cc(NC=C2C(=O)OC(C)(C)OC2=O)c(OC)c(C)c1OC	TK-10	-1
Cc1c2c(c(C)n1-c1ccccc1)C(=O)N(CCSC(=N)N)C2=O	TK-10	-1
O=C(N/N=C/c1c(-c2ccccc2)no[n+]1[O-])N1CCOCC1	TK-10	-1
O=C(O)/C(Cl)=C(\Cl)C(=O)Nc1ccc(Cl)c(Cl)c1Cl	TK-10	-1
COc1ccc(-c2oc3c(OC)c(OC)c(OC)c(O)c3c(=O)c2OC)cc1OC	TK-10	-1
CC(=O)NNc1nc(C)c(C(/C=C/c2ccc([N+](=O)[O-])cc2)=N/N)s1	TK-10	-1
c1ccc(C(=NNc2nc3ccccc3o2)c2ccccn2)nc1	TK-10	1
CC(=O)NC(CC(C)C)C(=O)NC(Cc1ccccc1)C(=O)CCl (stereo not drawn) (Ac-Leu-Phe-CH2Cl; configuration not given here)	TK-10	-1
Clc1ccc(Nc2nc(Cl)c3nc[nH]c3n2)cc1Cl	TK-10	-1
C/C(=N/NC(=O)C[n+]1ccccc1)C(CN(CC(C)C)CC(C)C)C(=O)Nc1ccc(C)cc1C (stereo unspecified)	TK-10	-1
COc1c(O)c2ccccc2c2cc(O)ccc12	TK-10	-1
